molecular target: UniProtKB P04585
measurement_label: pIC50
Give bare numbers, as −log10 of the molar value.

Prompt line: Looking for the measured pIC50 of Cc1cn([C@H]2C[C@H](N=[N+]=[N-])[C@@H](CO)O2)c(=O)[nH]c1=O [AZT, zidovudine, reference compound] , can you help?
Response line: 3.52
